# key: entry, value: Percent Effect
Target: Ubiquitin-activating enzyme e1, putative (Leishmania donovani (strain BPK282A1))
Test: Leishmania donovani Ubiquitin Activating Enzyme (LdE1)
Type: functional
Set-up: scale not given: direction of the effect not stated beside the values
Settings: 30 µM
Measured potencies and affinities stand elsewhere.
outcome_measure: Percent Effect (%)

- N#Cc1ccc(CN2CCN(C(=O)c3cc(C4CC4)[nH]n3)CC2)cc1: 21.6
- CN1C(=O)C[C@@H]2[C@@H]1CCN2S(=O)(=O)Cc1ccccc1: 2.74
- CN(C)CCN1CCO[C@H]2CN(Cc3cnn(C)c3)C[C@H]21: 0
- CCS(=O)(=O)N1CCC2(CCCN(Cc3cc(OC)ccc3F)C2)C1 (stereo not drawn): 6.94
- CN1CCN(C(=O)[C@H]2C[C@@H]3CCN(c4ncc(F)cn4)C[C@@H]3O2)CC1: 8
- O=S1(=O)CCN(Cc2cccnc2)[C@H]2CCN(c3ncccn3)CC[C@H]21: -2.7
- Cc1ccccc1CNc1nc(O)cc(C2CC(=O)N(C)C2)n1 (stereo not drawn): 6.76
- CCn1cnnc1C1CCN(C(=O)c2cc3c(s2)CCC3)CC1: 20.2
- COc1ccc(C2CCCN2C(=O)NCCNc2ncccn2)cc1 (stereo not drawn): 2.74
- O=C(C1CCC1)N1CCC2(COCc3cnc(N4CCOCC4)nc32)C1 (stereo not drawn): 13.3
- COCCOc1ccc(NC(=O)C2CCCN(C(N)=O)C2)cn1 (stereo not drawn): 7.59
- CC(NC(=O)c1ccc2c(c1)OCC(=O)N2)c1ccccc1F (stereo not drawn): 18.4
- CCNC(c1cccnc1)c1cc(C)cc(C)c1 (stereo not drawn): -3.8
- Cc1nn(C)c(C)c1NC(=O)CN1CCCC1c1noc(C2CC2)n1 (stereo not drawn): 13.7
- Cc1ccccc1-c1cc(NC(=O)CC(C)C)n(CCO)n1: 2.63
- Cc1cc(CN2CCN(C(=O)c3sccc3C3CC3)CC2)on1: 10.4
- C1CC1c1nsc(N2CCN(C3CC3)CC2)n1: 13.7
- O=S(=O)(C1CC1)N1CCC2(COCc3cnc(N4CCOCC4)nc32)C1 (stereo not drawn): 14.7
- Cc1nc(C2CCCN(C(=O)c3cnn(C(C)(C)C)c3)C2)no1 (stereo not drawn): 16.5
- CCc1nnc2n1CCN(C(=O)CN(C)Cc1ccccc1)C2: 7.89
- Cc1cc(C)n(CCCNC(=O)C(C)NC(=O)c2ccccc2Cl)n1 (stereo not drawn): 5.26
- Cc1noc(C)c1CNC(=O)N1CCC(CO)CC1: 13.7
- CC(C)N(C)Cc1nnc2n1CCN(Cc1ccncc1)CC2: 8
- O=C(NCCn1ccnc1)c1ccn(-c2cccc(F)c2)n1: 15.8
- O=C1CN(Cc2nnc(-c3ccc(Br)o3)o2)CCN1: 4.17
- CC(NC(=O)C1=NN(C)C(=O)CC1)c1ccc(Cl)cc1Cl (stereo not drawn): 16.4
- c1cc(CNCc2ccc3c(c2)CCO3)cc(N2CCOCC2)n1: 5.41
- CCN(Cc1ccco1)C(=O)Nc1cc(C(F)(F)F)c[nH]c1=O: 10.5
- COc1c(CNCCNC(=O)c2ccc(C)cc2)c(C)nn1C: 13.5
- Cc1ccc(CNC(=O)N2CCCCC2CCNS(C)(=O)=O)cc1 (stereo not drawn): 2.7
- CC(C)(C)C(=O)NCCC(=O)NC(C)(C)c1ccc2c(c1)OCCO2: -5.48
- CCc1ccc(CNC(=O)NC(C)CN2CCOCC2)s1 (stereo not drawn): 18.4
- COCC1c2c(cnn2CC2CC2)CCN1Cc1cccs1 (stereo not drawn): -5.33
- Cc1ccc(Cl)cc1C(=O)N1CCC2(CC1)c1ccccc1[C@@H](N)[C@@H]2O: 5.41
- O=C(Cc1ccc(F)cc1)N1CCn2cc(Cn3cccn3)nc2C1: 10.8
- Cn1nc(COc2cccnc2)c2c1CCN(c1cnccn1)C2: 13.5
- Cc1nc(C2(NCC(=O)NCCc3cccs3)CCCC2)no1: 7.89
- CC(C)c1nccn1C1CCCN(C(=O)c2cnc[nH]2)C1 (stereo not drawn): 10.5
- Cc1cnn(C2CCCN(C(=O)c3ccn(C)c(=O)c3)C2)c1 (stereo not drawn): 7.79
- CCCNCC1(O)CCCN(Cc2cccc(C)c2)C1=O (stereo not drawn): 0
- CC(Cc1ccco1)NC(=O)Nc1cnn(CC(N)=O)c1 (stereo not drawn): 6.33
- Cc1cccc(OCCC(=O)N2CCN(S(=O)(=O)N(C)C)CC2)c1C: 22.8
- COc1ccc(OCc2nc(C(=O)N3CC[C@H](O)[C@@H](O)C3)co2)cc1: 2.7
- CCOc1ccc(CN(C)C(=O)NC(C)c2nncn2C)cc1 (stereo not drawn): 15.3
- COCCOCC(=O)Nc1ccc(Br)cc1F: 10.5
- c1cnn(CC2CCCN2c2ncnc3sccc23)c1 (stereo not drawn): -2.7
- CC(C)c1nc(C2CCCN2C(=O)c2nccnc2N)no1 (stereo not drawn): 16.2
- Cc1nc(C2CCCN(C(=O)c3sccc3C3CC3)C2)no1 (stereo not drawn): -1.39

Cited source for all entries: ChEMBL document CHEMBL3988442
